The measured values listed here are drawn from PubChem BioAssay (NCATS).

# target_desc: Cytochrome P450 1A2 (Homo sapiens) (UniProt P05177)
# Sequence (P05177 whole entry, looked up): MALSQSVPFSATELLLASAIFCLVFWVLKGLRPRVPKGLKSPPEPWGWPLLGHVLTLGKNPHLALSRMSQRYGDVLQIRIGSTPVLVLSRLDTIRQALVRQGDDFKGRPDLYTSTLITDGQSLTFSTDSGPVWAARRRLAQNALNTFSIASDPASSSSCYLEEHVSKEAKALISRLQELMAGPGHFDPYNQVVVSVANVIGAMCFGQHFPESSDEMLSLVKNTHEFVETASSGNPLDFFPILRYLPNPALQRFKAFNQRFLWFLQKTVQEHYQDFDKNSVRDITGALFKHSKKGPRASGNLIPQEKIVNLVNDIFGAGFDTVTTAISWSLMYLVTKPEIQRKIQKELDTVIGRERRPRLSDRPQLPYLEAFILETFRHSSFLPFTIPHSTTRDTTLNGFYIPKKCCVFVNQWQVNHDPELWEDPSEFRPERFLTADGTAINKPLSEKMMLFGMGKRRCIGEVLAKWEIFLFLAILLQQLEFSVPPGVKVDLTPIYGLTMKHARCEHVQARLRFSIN
# test_summary: p450-cyp1a2 (AID 410)
# assay_conditions: recombinant CYP1A2, luciferin-ME demethylation, luminescence; series mostly up to 57 µM
Results filed as inconclusive are left out. Calls of active or inactive are those of the source. The call rests on the fitted dose curve.
Pick from 1 for active, -1 for inactive when you respond.

Solved entries:
In [3]: df
Out[3]:
                                smiles_code                               target_desc  assigned_label
0       CC(=O)NCCNc1ncncc1-c1ccccc1C(F)(F)F  Cytochrome P450 1A2 (Homo sapiens) (UniProt P05177)              -1
1  N#Cc1cccc(-c2nc(NCc3cccnc3)c3ccccc3n2)c1  Cytochrome P450 1A2 (Homo sapiens) (UniProt P05177)               1
2      c1cncc(-c2nc(NCc3cccs3)c3ccccc3n2)c1  Cytochrome P450 1A2 (Homo sapiens) (UniProt P05177)               1
3    CC(C)CN1CCC2(CC1)CCN(C(=O)c1cccn1C)CC2  Cytochrome P450 1A2 (Homo sapiens) (UniProt P05177)              -1
4   O=C(c1ccco1)N1CCC2(CCCN(c3ccccn3)C2)CC1  Cytochrome P450 1A2 (Homo sapiens) (UniProt P05177)               1
5  COc1ccc2[nH]cc(CCNc3ccnc(-c4cccc(NS(C)(=O)=O)c4)n3)c2c1  Cytochrome P450 1A2 (Homo sapiens) (UniProt P05177)               1
6  COc1ccc(CNc2nc(-c3ccccc3CN(C)C)nc3ccccc23)c(OC)c1  Cytochrome P450 1A2 (Homo sapiens) (UniProt P05177)               1
7  CS(=O)(=O)Nc1cccc(-c2nc(NCc3cccs3)c3ccccc3n2)c1  Cytochrome P450 1A2 (Homo sapiens) (UniProt P05177)               1
8  O=c1c(-c2ccccc2)nc2cnc(N3CCOCC3)nc2n1Cc1cccs1  Cytochrome P450 1A2 (Homo sapiens) (UniProt P05177)               1
9  COc1ccc(Oc2ncc3nc(-c4ccc(F)cc4)c(=O)n(C)c3n2)cc1  Cytochrome P450 1A2 (Homo sapiens) (UniProt P05177)               1

# next compound below
Query block: Per the records of this test, what outcome belongs to Cc1ccccc1-c1ccc2ncnc(N(C)C)c2c1 ?
Result block: 1
